Reported IC50 values follow for various compounds
# Test system: Candida albicans
# Assay details: In vitro concentration to inhibit Candida albicans CDR2 transporter gene over-expressed in Saccharomyces cerevisiae strain YEM171
# Format: functional, organism-based
Test readout: IC50

• COc1ccc(N(C(=O)Nc2cccc(Cl)c2)C(C)c2nc3ccccc3c(=O)n2Cc2ccccc2)c(OC)c1 (configuration not stated) = > 32 µg/mL
• COc1ccc(N(Cc2nc3ccccc3c(=O)n2N2CCN(C)CC2)C(=O)Nc2cccc(Cl)c2)c(OC)c1 = > 32 µg/mL
• COc1ccc(N(C(=O)Nc2cccc(Cl)c2)C(C)(C)c2nc3ccccc3c(=O)n2N2CCN(C)CC2)c(OC)c1 = > 32 µg/mL
• COc1ccc(N(C(=O)Nc2cccc(Cl)c2)C(C)c2nc3ccccc3c(=O)n2N2CCN(C)CC2)c(OC)c1 (configuration not stated) = > 16 µg/mL
• COc1ccc(N(C(=O)Nc2cccc(Cl)c2)[C@H](C)c2nc3ccccc3c(=O)n2N2CCN(C)CC2)c(OC)c1 = > 32 µg/mL
• COc1ccc(N(C(=O)Nc2cccc(Cl)c2)[C@@H](C)c2nc3ccccc3c(=O)n2N2CCN(C)CC2)c(OC)c1 = > 32 µg/mL
• CCOC(=O)CCn1c(C(C)N(C(=O)Nc2cccc(Cl)c2)c2ccc(OC)cc2OC)nc2ccccc2c1=O (configuration not stated) = > 32 µg/mL

====

Reported IC50 values follow for various molecules
# Test system: Nakaseomyces glabratus
# Assay details: In vitro concentration to inhibit Candida glabrata CgCDR2 transporter gene over-expressed in Saccharomyces cerevisiae strain Y218
# Type: functional, organism-based
Test readout: IC50

- CCOC(=O)CCn1c(C(C)N(C(=O)Nc2cccc(Cl)c2)c2ccc(OC)cc2OC)nc2ccccc2c1=O (configuration not stated): > 32 µg/mL
- COc1ccc(N(C(=O)Nc2cccc(Cl)c2)[C@H](C)c2nc3ccccc3c(=O)n2N2CCN(C)CC2)c(OC)c1: > 32 µg/mL
- COc1ccc(N(C(=O)Nc2cccc(Cl)c2)C(C)(C)c2nc3ccccc3c(=O)n2N2CCN(C)CC2)c(OC)c1: > 32 µg/mL
- COc1ccc(N(C(=O)Nc2cccc(Cl)c2)[C@@H](C)c2nc3ccccc3c(=O)n2N2CCN(C)CC2)c(OC)c1: > 32 µg/mL
- COc1ccc(N(C(=O)Nc2cccc(Cl)c2)C(C)c2nc3ccccc3c(=O)n2N2CCN(C)CC2)c(OC)c1 (configuration not stated): > 16 µg/mL
- COc1ccc(N(C(=O)Nc2cccc(Cl)c2)C(C)c2nc3ccccc3c(=O)n2Cc2ccccc2)c(OC)c1 (configuration not stated): > 32 µg/mL
- COc1ccc(N(Cc2nc3ccccc3c(=O)n2N2CCN(C)CC2)C(=O)Nc2cccc(Cl)c2)c(OC)c1: 32 µg/mL

====

# Tested on: Nakaseomyces glabratus
# Assay details: In vitro concentration to inhibit Candida glabrata CgCDR1 transporter gene over-expressed in Saccharomyces cerevisiae strain Y170
# Type: functional, organism-based
Test readout: IC50

* COc1ccc(N(C(=O)Nc2cccc(Cl)c2)C(C)c2nc3ccccc3c(=O)n2N2CCN(C)CC2)c(OC)c1 (configuration not stated) | 8 µg/mL
* COc1ccc(N(Cc2nc3ccccc3c(=O)n2N2CCN(C)CC2)C(=O)Nc2cccc(Cl)c2)c(OC)c1 | > 32 µg/mL
* CCOC(=O)CCn1c(C(C)N(C(=O)Nc2cccc(Cl)c2)c2ccc(OC)cc2OC)nc2ccccc2c1=O (configuration not stated) | > 32 µg/mL
* COc1ccc(N(C(=O)Nc2cccc(Cl)c2)[C@H](C)c2nc3ccccc3c(=O)n2N2CCN(C)CC2)c(OC)c1 | > 32 µg/mL
* COc1ccc(N(C(=O)Nc2cccc(Cl)c2)C(C)c2nc3ccccc3c(=O)n2Cc2ccccc2)c(OC)c1 (configuration not stated) | > 32 µg/mL
* COc1ccc(N(C(=O)Nc2cccc(Cl)c2)C(C)(C)c2nc3ccccc3c(=O)n2N2CCN(C)CC2)c(OC)c1 | > 32 µg/mL
* COc1ccc(N(C(=O)Nc2cccc(Cl)c2)[C@@H](C)c2nc3ccccc3c(=O)n2N2CCN(C)CC2)c(OC)c1 | 4 µg/mL
